Every entry's value here was drawn from patent US20230190852A1.

For each record, write down the corresponding Paw edema, percent change of vehicle.
tested on: Lewis rats; assay: Carrageenan-induced rat paw edema model (paw edema and pain sensitivity); assay type: in vivo; conditions: 5 hr; 100 mg/kg oral 1 hr after carrageenan; female Lewis rats
Marks after values point to notes of the source that are not given here.

Recorded result, CC(C)=CCc1c(-c2ccc(O)cc2O)oc2c(C3C=C(C)CC(c4ccc(O)cc4O)C3C(=O)c3ccc(O)cc3O)c(O)cc(O)c2c1=O (stereo not shown) , Paw edema, percent change of vehicle: 29.3* %

Recorded result, "Oc1cc(O)cc(/C=C/c2ccc(O)cc2O)c1" , Paw edema, percent change of vehicle: 38.3* %

Recorded result, "CC(C)=CCc1c(-c2ccc(O)cc2O)oc2c3c(cc(O)c2c1=O)OC(C)(C)C=C3" , Paw edema, percent change of vehicle: 38.0* %

Recorded result, OC[C@H]1O[C@@H](Oc2cc(O)cc(/C=C/c3ccc(O[C@@H]4O[C@H](CO)[C@@H](O)[C@H](O)[C@H]4O)cc3O)c2)[C@H](O)[C@@H](O)[C@@H]1O [Mulberoside A, mulberroside A] , Paw edema, percent change of vehicle: 37.3* %
